# assayed.target: recombinant, human protein tyrosine phosphatase (PTP) 1B (hPTP1B) (Homo sapiens)
# Sequence (P18031 1-435): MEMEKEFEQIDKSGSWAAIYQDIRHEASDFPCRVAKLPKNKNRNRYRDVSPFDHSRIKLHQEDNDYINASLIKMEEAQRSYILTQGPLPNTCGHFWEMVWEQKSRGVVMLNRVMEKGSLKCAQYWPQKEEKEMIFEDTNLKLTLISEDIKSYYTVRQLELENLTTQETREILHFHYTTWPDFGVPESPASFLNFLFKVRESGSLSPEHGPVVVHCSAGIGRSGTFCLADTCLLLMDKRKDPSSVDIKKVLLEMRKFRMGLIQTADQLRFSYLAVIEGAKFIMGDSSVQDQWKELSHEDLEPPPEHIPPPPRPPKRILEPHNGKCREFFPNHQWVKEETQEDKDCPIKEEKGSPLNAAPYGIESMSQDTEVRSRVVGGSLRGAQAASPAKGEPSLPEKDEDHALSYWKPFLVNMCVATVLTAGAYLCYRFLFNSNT
# method.summary: Inhibition of tri-phosphorylated insulin receptor dodecaphosphopeptide dephosphorylation by hPTP1B
# condition.summary: 50 μM IR triphosphopeptide substrate, 5 min preincubation and 5 min reaction at 37° C., malachite green-ammonium molybdate phosphate detection
pIC50: −log10 of the molar value.

- molecule: "COc1ccc2c(c1)cc(C)n2CCCCCCCCNC(=O)c1cc(-c2cccc(Cl)c2)c(OCC(=O)O)c(-c2cccc(Cl)c2)c1 [Example 99]"
  assayed.target: "recombinant, human protein tyrosine phosphatase (PTP) 1B (hPTP1B) (Homo sapiens)"
  pIC50: 6.57
- molecule: "Cc1cc(COCCCCCCNC(=O)c2cc(-c3cccc(C(F)(F)F)c3)c(OCC(=O)O)c(-c3cccc(C(F)(F)F)c3)c2)c(C)o1 [Example 30]"
  assayed.target: "recombinant, human protein tyrosine phosphatase (PTP) 1B (hPTP1B) (Homo sapiens)"
  pIC50: 6.66
- molecule: "O=C(O)COc1c(-c2cccc(F)c2)cc(C(=O)NCCCCCCCCc2ccccc2)cc1-c1cccc(F)c1 [Example 83]"
  assayed.target: "recombinant, human protein tyrosine phosphatase (PTP) 1B (hPTP1B) (Homo sapiens)"
  pIC50: 6.27

----------
Below is a list of entries, each paired with its recorded melting point value.

- molecule: "O=C(O)c1ccc(COc2c(-c3cccc(C(F)(F)F)c3)cc(C(=O)NCCCCCCCc3ccccc3)cc2-c2cccc(C(F)(F)F)c2)cc1 (hydrate or solvate)"
  melting point: "89 to 91 °C"
- molecule: "CCCCCCCCOc1cc(-c2ccccc2)c(OCC(=O)O)c(-c2ccccc2)c1"
  melting point: "82 to 84 °C"
- molecule: "O=C(O)COc1c(-c2cccc(Cl)c2)cc(C(=O)N(CCc2ccccc2)Cc2ccccc2)cc1-c1cccc(C(F)(F)F)c1"
  melting point: "> 75 °C (dec.)"
- molecule: "CCCCCCCCCCCCNC(=O)c1cc(Br)c(OCCn2cnnn2)c(-c2cccc(C(F)(F)F)c2)c1"
  melting point: "91.5 to 92.6 °C"

----------
Examples of compounds with documented melting point follow.
readout.type: melting point

- compound: "COc1ccc(-c2cc(C(=O)NCCc3ccccn3)cc(-c3cccc(C(F)(F)F)c3)c2OCC(=O)O)cc1"
  recorded.measurement: "> 105 °C (dec.)"
- compound: "O=C(O)COCCOc1c(-c2cccc(C(F)(F)F)c2)cc(C(=O)NCCCCCCc2ccccc2)cc1-c1cccc(C(F)(F)F)c1"
  recorded.measurement: "74.7 to 75.9 °C"
- compound: "O=C(O)COc1c(-c2cccc(Cl)c2)cc(C(=O)NCCCCCCOC(=O)Nc2ccc(Oc3ccccc3)cc2)cc1-c1cccc(Cl)c1"
  recorded.measurement: "> 75 °C (dec.)"
- compound: "O=C(O)COc1c(-c2cccc(C(F)(F)F)c2)cc(C(=O)NCCCCCCOCc2ccc(F)cc2F)cc1-c1cccc(C(F)(F)F)c1"
  recorded.measurement: "149.9 to 150.6 °C"
- compound: "O=C(O)COc1c(-c2cccc(Cl)c2)cc(C(=O)NCCCCCCCCn2ccc3cc(F)ccc32)cc1-c1cccc(Cl)c1"
  recorded.measurement: "141 to 144 °C"
- compound: "CCCCCCCCOc1cc(-c2cccc(Cl)c2)c(OCC(=O)O)c(-c2cccc(Cl)c2)c1"
  recorded.measurement: "113 to 115.5 °C"
- compound: "COc1ccc(-c2cc(C(=O)NCCCCCCc3ccccc3)cc(-c3ccccc3F)c2OCC(=O)O)cc1"
  recorded.measurement: "> 72 °C (dec.)"
- compound: "COc1ccc(-c2cc(C(=O)NCCCC3CCCC3)cc(-c3cccc(C(F)(F)F)c3)c2OCC(=O)O)cc1"
  recorded.measurement: "> 114 °C (dec.)"
- compound: "CCCCOc1cc(-c2ccccc2)c(OCC(=O)O)c(-c2ccccc2)c1"
  recorded.measurement: "92 to 94 °C"
- compound: "O=C(O)COc1c(-c2ccccc2)cc2oc3ccccc3c2c1-c1ccccc1"
  recorded.measurement: "> 120 °C (dec.)"
- compound: "CCCCCCCCCCCCNC(=O)c1cc(Br)c(OCCn2cnnn2)c(-c2cccc(OC)c2)c1"
  recorded.measurement: "100 to 101 °C"
- compound: "O=C(O)COc1c(-c2cccc(C(F)(F)F)c2)cc(C(=O)NCCCCCCc2ccccc2)cc1-c1cccc(C(F)(F)F)c1"
  recorded.measurement: "166.5 to 168.8 °C"
- compound: "COc1ccc(-c2cc(-c3ccc(C(=O)NCCCCCCCc4ccccc4)cc3)cc(-c3ccc(OC)cc3)c2OCc2ccc(C(=O)O)cc2)cc1 (hydrate or solvate)"
  recorded.measurement: "140 to 142 °C"

----------
# assayed.target: recombinant, human protein tyrosine phosphatase (PTP) 1B (hPTP1B) (Homo sapiens)
# method.summary: Inhibition of tri-phosphorylated insulin receptor dodecaphosphopeptide dephosphorylation by hPTP1B
# condition.summary: 50 μM IR triphosphopeptide substrate, 5 min preincubation and 5 min reaction at 37° C., malachite green-ammonium molybdate phosphate detection
pIC50: −log10 of the molar value.

- molecule: "O=C(O)COc1c(-c2cccc(Cl)c2)cc(C(=O)NCC2(COCCCCc3ccccc3)CC2)cc1-c1cccc(Cl)c1 [Example 100]"
  assayed.target: "recombinant, human protein tyrosine phosphatase (PTP) 1B (hPTP1B) (Homo sapiens)"
  pIC50: 6.41
- molecule: "O=C(O)COc1c(-c2cccc(Cl)c2)cc(C(=O)NCCCCCCCCOCc2ccc(C(F)(F)F)cc2)cc1-c1cccc(Cl)c1 [Example 122]"
  assayed.target: "recombinant, human protein tyrosine phosphatase (PTP) 1B (hPTP1B) (Homo sapiens)"
  pIC50: 7.04
- molecule: "O=C(NCCCCCCCCc1ccccc1)c1cc(Br)c(O)c(-c2cccc(C(=O)OCCCCCl)c2)c1 [Example 152]"
  assayed.target: "recombinant, human protein tyrosine phosphatase (PTP) 1B (hPTP1B) (Homo sapiens)"
  pIC50: 6.40
- molecule: "O=C(O)COc1c(-c2cccc(Cl)c2)cc(C(=O)NCCCCCCCCc2ccccc2)cc1-c1ccccc1F [Example 115]"
  assayed.target: "recombinant, human protein tyrosine phosphatase (PTP) 1B (hPTP1B) (Homo sapiens)"
  pIC50: 6.54
- molecule: "Cc1cccc(-c2cc(C(=O)NCCCCCCCc3ccccc3)cc(-c3cccc(C)c3)c2OCC(=O)O)c1 [Example 145]"
  assayed.target: "recombinant, human protein tyrosine phosphatase (PTP) 1B (hPTP1B) (Homo sapiens)"
  pIC50: 5.94
- molecule: "CCCCCCCCCCCCNC(=O)c1cc(-c2cccc(Cl)c2)c(OCC(=O)O)c(-c2ccccc2F)c1 [Example 114]"
  assayed.target: "recombinant, human protein tyrosine phosphatase (PTP) 1B (hPTP1B) (Homo sapiens)"
  pIC50: 7.26
- molecule: "COCOc1c(-c2cccc(C=O)c2)cc(C(=O)NCCCCCCCc2ccccc2)cc1-c1cccc(C=O)c1 [Example 149]"
  assayed.target: "recombinant, human protein tyrosine phosphatase (PTP) 1B (hPTP1B) (Homo sapiens)"
  pIC50: 6.39
- molecule: "COc1ccc(-c2cc(C(=O)N(C)CCCCCCCCc3ccccc3)cc(-c3cccc(C(F)(F)F)c3)c2OCC(=O)O)cc1 [Example 81]"
  assayed.target: "recombinant, human protein tyrosine phosphatase (PTP) 1B (hPTP1B) (Homo sapiens)"
  pIC50: 6.48
- molecule: "O=C(O)COc1c(-c2cccc(Cl)c2)cc(C(=O)NCCCCCCCCCCCCOc2ccc(F)cc2F)cc1-c1cccc(Cl)c1 [Example 121]"
  assayed.target: "recombinant, human protein tyrosine phosphatase (PTP) 1B (hPTP1B) (Homo sapiens)"
  pIC50: 7.82
- molecule: "O=C(O)COc1c(-c2cccc(Cl)c2)cc(C(=O)NCCCCCCCCOCc2ccc(Cl)cc2)cc1-c1cccc(Cl)c1 [Example 90]"
  assayed.target: "recombinant, human protein tyrosine phosphatase (PTP) 1B (hPTP1B) (Homo sapiens)"
  pIC50: 7.00
- molecule: "Cc1cc(COCCCCCCNC(=O)c2cc(-c3ccc(F)c(Cl)c3)c(OCC(=O)O)c(-c3ccc(F)c(Cl)c3)c2)c(C)o1 [Example 26]"
  assayed.target: "recombinant, human protein tyrosine phosphatase (PTP) 1B (hPTP1B) (Homo sapiens)"
  pIC50: 6.68
- molecule: "O=C(O)COc1c(-c2cccc(Cl)c2)cc(C(=O)NCCCCCCCCOc2ccc(F)cc2F)cc1-c1cccc(Cl)c1 [Example 120]"
  assayed.target: "recombinant, human protein tyrosine phosphatase (PTP) 1B (hPTP1B) (Homo sapiens)"
  pIC50: 7.28
- molecule: "O=C(O)COc1c(-c2cccc(C(F)(F)F)c2)cc(C(=O)NCCCCCCc2ccccc2)cc1-c1cccc(C(F)(F)F)c1 [Example 189]"
  assayed.target: "recombinant, human protein tyrosine phosphatase (PTP) 1B (hPTP1B) (Homo sapiens)"
  pIC50: 6.47
- molecule: "CCCCCCCCCCCCNC(=O)c1cc(-c2cccc(C(F)(F)F)c2)c(OCC(=O)O)c(-c2cccc(C(F)(F)F)c2)c1 [Example 175]"
  assayed.target: "recombinant, human protein tyrosine phosphatase (PTP) 1B (hPTP1B) (Homo sapiens)"
  pIC50: 7.30
- molecule: "COc1cccc(-c2cc(C(=O)NCCCCCCCCc3ccccc3)cc(-c3cccc(OC)c3OCC(=O)O)c2)c1 [Example 17]"
  assayed.target: "recombinant, human protein tyrosine phosphatase (PTP) 1B (hPTP1B) (Homo sapiens)"
  pIC50: 6.55
- molecule: "O=C(O)c1ccc(OCCOc2c(-c3cccc(Cl)c3)cc(C(=O)NCCCCCCCCn3ccc4ccccc43)cc2-c2cccc(Cl)c2)cc1 [Example 165]"
  assayed.target: "recombinant, human protein tyrosine phosphatase (PTP) 1B (hPTP1B) (Homo sapiens)"
  pIC50: 7.11

These measurements were taken from patent US7008636B2.
